experiment: chemical genetic growth profiling, strain panel (AID 1159580);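 also: tested at 20 µM; growth read once vehicle control cultures reached saturation at 30 °C; 1 = growth at the plate median or of vehicle wells; lower values mean less growth of the strain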; settings: S. cerevisiae deletion strains, growth OD, locus YOR083W, strain WHI5 (second series)
About 2,000 (36%) of roughly 5,500 compounds were called active. About 18% were inconclusive and are not listed. Rule as the data show it: active = normalized growth mostly below about 0.91 (no sharp cut-off); inconclusive = no clear call, values can overlap the other calls; inactive = mostly above about 0.92. The list shows a part of the results.
# output must be one of T for active, F for inactive

compound | category
COc1ccc(-c2ccc(N)[n+](CCCC(=O)O)n2)cc1 | F
S=C(S)N1CCCC1 | T
O=C(OC1CCN(CCCl)CC1)C(c1ccccc1)c1ccccc1 | F
NCCS | F
C(=C\c1ccccc1)/CN1CCN(C(c2ccccc2)c2ccccc2)CC1 | F
O=c1[nH]c2ccccc2n1C1CCN(CCCC(c2ccc(F)cc2)c2ccc(F)cc2)CC1 | F
C=CCN1CCC23c4c5ccc(O)c4O[C@H]2C(=O)CC[C@@]3(O)C1C5 (stereo partly specified) | F
CN=C(N)NCCC[C@H](N)C(=O)O | F

Exam item: # fetch the recorded call for "CC(=O)O[C@H]1C[C@@H]2CC[C@@H]3[C@H](CC[C@@]4(C)[C@H]3C[C@H]([N+]3(C)CCCCC3)[C@@H]4OC(C)=O)[C@@]2(C)C[C@@H]1[N+]1(C)CCCCC1" here
Marked response: F

Exam item: # fetch the recorded call for COC1(C2=NCCN2)COc2ccccc2O1 (stereo unspecified) here
Marked response: F

Exam item: # fetch the recorded call for NC1(C(=O)O)CCc2cc(C(=O)O)ccc21 (stereo unspecified) here
Marked response: F

* * *

assay: chemical genetic growth profiling, strain panel (AID 1159580); conditions: S. cerevisiae deletion strains, growth OD, locus YNL307C, strain MCK1, active compounds read low
In all, about 5,500 compounds went through this assay and about 2,000 (36%) were called active. Roughly 18% stayed inconclusive and do not appear here. The list shows a part of the results.
observed.property: normalized growth

Consider the worked cases shown below.
molecule | normalized growth
Cn1cnc([N+](=O)[O-])c1Sc1ncnc2nc[nH]c12 | 0.981 (inactive)
CC1=C2CCC3C(CC[C@]4(C)C(=O)CCC34)[C@@]2(C)CCC1=O (stereo partly specified) | 0.695 (active)
Nc1ncnc2nc[nH]c12 | 0.591 (active)
C[C@]12CCC3C(CC[C@H]4C[C@@H](O)CC[C@]34C)C1CCC2=O (stereo partly specified) | 0.366 (active)
c1coc(CNc2ncnc3nc[nH]c23)c1 | 0.995 (inactive)

Turning now to a further record.
Exam item: Look up normalized growth for this molecule: "Cn1c([N+](=O)[O-])cnc1COC(N)=O"
Marked response: 0.984 (inactive)

* * *

test: chemical genetic growth profiling, strain panel (AID 1159580); settings: S. cerevisiae deletion strains, growth OD, locus YHR200W, strain rpn10, active compounds read low
Screen size: about 5,500 compounds; about 2,000 (36%) were called active. Inconclusive results (about 18%) are left out. Some of the results follow.
observed.property: normalized growth
Form rule: numeric answer, no unit written next to it.

Consider the worked cases shown below.
compound | result.value
Cc1cccc(N(C)C(=S)Oc2ccc3ccccc3c2)c1 | 0.961
COc1ccc2c(=O)c(-c3cc4c(cc3OC)OCO4)coc2c1 | 1.03
NCCS | 1.02

Exam item: Look up normalized growth for this compound: "CCCCCN=C(N)N/N=C\c1c[nH]c2ccc(OC)cc12"
Marked response: 1.04

Exam item: Look up normalized growth for this compound: "Fc1ccc(C(c2ccc(F)cc2)N2CCN(C/C=C/c3ccccc3)CC2)cc1"
Marked response: 0.973

Exam item: Look up normalized growth for this compound: "Cn1c([N+](=O)[O-])cnc1COC(N)=O"
Marked response: 0.986

Exam item: Look up normalized growth for this compound: "Cc1cc(C)nc(NS(=O)(=O)c2ccc(N)cc2)n1"
Marked response: 0.98

* * *

assay: chemical genetic growth profiling, strain panel (AID 1159580); settings: S. cerevisiae deletion strains, growth OD, locus YLR262C, strain YPT6
The campaign covered roughly 5,500 compounds. About 2,000 (36%) were called active. About 18% were inconclusive and are not listed. Rule as the data show it: active = normalized growth mostly below about 0.91 (no sharp cut-off); inconclusive = no clear call, values can overlap the other calls; inactive = mostly above about 0.92. The list shows a part of the results.
# output must be one of active, inactive

compound | category
O=C(Oc1ccc(F)cc1)c1cccs1 | inactive
CC(=O)/C(=C\N(C)C)Sc1nnc(C(F)(F)F)n1C | inactive
N#C/C(=N/Nc1ccc(C(F)(F)F)cc1)C(=O)C1CC1 | active
O=C(NC(c1ccccc1)C(N=Cc1ccccc1)c1ccccc1)c1ccccc1 (stereo not drawn) | inactive
CCCCCN=C(N)N/N=C\c1c[nH]c2ccc(OC)cc12 | inactive
COc1ccc2[nH]cc(CCNC(C)=O)c2c1 | inactive
CC(=O)CC(C)=Nc1ccc(C(F)(F)F)cc1 | inactive
CCOC(=O)c1csc(N/N=C2/CCCc3ccccc32)n1 | inactive
COc1cc(OC)cc(OC)c1 | inactive
NNC(=S)Nc1cc(C(F)(F)F)ccc1Cl | active

Exam item: # fetch the recorded call for "NNC(=S)Nc1ccc(C(F)(F)F)cc1" here
Marked response: inactive

Exam item: # fetch the recorded call for "CCCc1ccc(OC)cc1NC(C)=O" here
Marked response: inactive

Exam item: # fetch the recorded call for "N#CC(C#N)=CNc1cc(C(F)(F)F)ccc1N1CCCCC1" here
Marked response: inactive

* * *

# maps each entry to its normalized growth
experiment: chemical genetic growth profiling, strain panel (AID 1159580); details: S. cerevisiae deletion strains, growth OD, locus YBR021W, strain FUR4, active compounds read low
Out of some 5,500 compounds screened, about 2,000 (36%) were called active. Not shown: some 18% with an inconclusive outcome. Some of the results follow.
Form rule: numeric answer, no unit written next to it.

Consider the worked cases shown below.
structure.smiles.string | result.value
CC(C)=CCC1=C(O)c2ccccc2C(=O)C1=O | 1.05
O=c1c(-c2ccc3c(c2)OCO3)coc2cc(O)ccc12 | 0.991
CC(C)=CCc1c(O)cc2occ(-c3ccc4c(c3)OCO4)c(=O)c2c1O | 0.991

Exam item: Look up normalized growth for this compound: "Cn1c([N+](=O)[O-])cnc1COC(N)=O"
Marked response: 1.02

Exam item: Look up normalized growth for this compound: "CCCCCN=C(N)N/N=C\c1c[nH]c2ccc(OC)cc12"
Marked response: 0.989

Exam item: Look up normalized growth for this compound: "Cc1ncc([N+](=O)[O-])n1CCO"
Marked response: 0.998

Exam item: Look up normalized growth for this compound: "C=C(C)c1cc2cc(C(C)=O)c(O)cc2o1"
Marked response: 1.11

* * *

test: chemical genetic growth profiling, strain panel (AID 1159580);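 also: tested at 20 µM; growth read once vehicle control cultures reached saturation at 30 °C; 1 = growth at the plate median or of vehicle wells; lower values mean less growth of the strain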; details: S. cerevisiae deletion strains, growth OD, locus YOR290C, strain snf2, active compounds read low
Hit rate of the full screen: of about 5,500 compounds, about 2,000 (36%) were called active. Roughly 18% stayed inconclusive and do not appear here. This is one part of the list.
# maps each entry to its normalized growth

Consider the worked cases shown below.
compound | normalized growth
CC(C)=CCc1c(O)cc2occ(-c3ccc4c(c3)OCO4)c(=O)c2c1O | 0.916 (inactive)
N#C/C(=C\c1ccc(O)cc1)C(=O)O | 0.958 (inactive)
Cn1c([N+](=O)[O-])cnc1COC(N)=O | 1.03 (inactive)
Cn1nnnc1SCC1=C(C(=O)O)N2C(=O)C(NC(=O)C(OC=O)c3ccccc3)C2SC1 (stereo unspecified) | 1.01 (inactive)
CCS(=O)(=O)CCn1c([N+](=O)[O-])cnc1C | 1.02 (inactive)

Turning now to a further record.
Exam item: Look up normalized growth for this compound: "O=C(O)c1cc2cc(Cl)ccc2[nH]1"
Marked response: 0.992 (inactive)

* * *

experiment: chemical genetic growth profiling, strain panel (AID 1159580);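 also: tested at 20 µM; growth read once vehicle control cultures reached saturation at 30 °C; 1 = growth at the plate median or of vehicle wells; lower values mean less growth of the strain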; conditions: S. cerevisiae deletion strains, growth OD, locus YER111C, strain swi4, active compounds read low
Among all 5,500 compounds or so, about 2,000 (36%) were called active. Inconclusive results (about 18%) are left out. This is one part of the list.
observed.property: normalized growth
Form rule: numeric answer, no unit written next to it.

Consider the worked cases shown below.
molecule | normalized growth
COc1cc(OC)c2c(c1Cl)OC1(C2=O)C(O)=CC(=O)CC1C (stereo unspecified) | 1.01
O=C(O)c1cccc(O)c1O | 1.03
CN1Cc2c(N)cccc2C(c2ccccc2)C1 (stereo unspecified) | 1.01
CC1=C2CCC3C(CC[C@]4(C)C(=O)CCC34)[C@@]2(C)CCC1=O (stereo partly specified) | 0.989

Exam item: Look up normalized growth for this molecule: CC(=O)OC1CCC23C(=O)OC45CCC(C6=CC(=O)OC6)C4(C)CCC2C5CCC3(O)C1 (stereo unspecified)
Marked response: 0.95

Exam item: Look up normalized growth for this molecule: "CNC(=O)CSP(=S)(OC)OC"
Marked response: 1.01

* * *

assay: chemical genetic growth profiling, strain panel (AID 1159580);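 also: tested at 20 µM; growth read once vehicle control cultures reached saturation at 30 °C; 1 = growth at the plate median or of vehicle wells; lower values mean less growth of the strain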; conditions: S. cerevisiae deletion strains, growth OD, locus YNL322C, strain KRE1, active compounds read low
Hit rate of the full screen: of about 5,500 compounds, about 2,000 (36%) were called active. Roughly 18% stayed inconclusive and do not appear here. The list shows a part of the results.
observed.property: normalized growth
Form rule: numeric answer, no unit written next to it.

compound | result.value
Cc1ccc(S(=O)(=O)/C(C#N)=N\O)cc1 | 0.993
CCOc1ccc(Cc2nccc3cc(OCC)c(OCC)cc23)cc1OCC | 0.986
CNC(=O)CSP(=S)(OC)OC | 1.01

Exam item: Look up normalized growth for this compound: "O=C(O)C12CC3CC(CC(Br)(C3)C1)C2"
Marked response: 0.993

Exam item: Look up normalized growth for this compound: CCCCC(=O)O[C@H]1CCC2C3CCc4cc(O)ccc4C3CC[C@@]21C (stereo partly drawn)
Marked response: 0.998

Exam item: Look up normalized growth for this compound: "Cc1ccc(/C(C#N)=C2C=C/C(=N/O)C(Cl)=C\2Cl)cc1"
Marked response: 0.98

Exam item: Look up normalized growth for this compound: "OCCN1CCN(CCCN2c3ccccc3Sc3ccc(Cl)cc32)CC1"
Marked response: 1.01

Exam item: Look up normalized growth for this compound: O=C(NC(c1ccccc1)C(N=Cc1ccccc1)c1ccccc1)c1ccccc1 (stereo not drawn)
Marked response: 1

Exam item: Look up normalized growth for this compound: CCOc1nc2cccc(C(=O)OC(C)OC(=O)OC3CCCCC3)c2n1Cc1ccc(-c2ccccc2-c2nn[nH]n2)cc1 (stereo not drawn)
Marked response: 1

Exam item: Look up normalized growth for this compound: COc1cc(OC)c2c(c1Cl)OC1(C2=O)C(O)=CC(=O)CC1C (stereo not drawn)
Marked response: 1.02

Exam item: Look up normalized growth for this compound: "CN1CCN(CCCN2c3ccccc3Sc3ccc(Cl)cc32)CC1"
Marked response: 0.0727

Exam item: Look up normalized growth for this compound: O=[N+]([O-])c1ccc(C2N(Cc3ccccc3)CCC3CCCCN32)cc1 (stereo not drawn)
Marked response: 1.01

Exam item: Look up normalized growth for this compound: "CC1(C)C[C@@H]2C(=O)CC[C@H]3O[C@]3(C)CC[C@H]21"
Marked response: 1.01

Exam item: Look up normalized growth for this compound: "NC(N)=N[C@@H](CCC(=O)O)C(=O)O"
Marked response: 1.02

Exam item: Look up normalized growth for this compound: CC(=O)OC1CCC2C3CCc4cc(O)ccc4C3CCC12C (stereo not drawn)
Marked response: 0.963
